// provenance: patent US10342782B2

# TARGET_DESC: Human M4 (Homo sapiens)
# Sequence (P08173 whole entry): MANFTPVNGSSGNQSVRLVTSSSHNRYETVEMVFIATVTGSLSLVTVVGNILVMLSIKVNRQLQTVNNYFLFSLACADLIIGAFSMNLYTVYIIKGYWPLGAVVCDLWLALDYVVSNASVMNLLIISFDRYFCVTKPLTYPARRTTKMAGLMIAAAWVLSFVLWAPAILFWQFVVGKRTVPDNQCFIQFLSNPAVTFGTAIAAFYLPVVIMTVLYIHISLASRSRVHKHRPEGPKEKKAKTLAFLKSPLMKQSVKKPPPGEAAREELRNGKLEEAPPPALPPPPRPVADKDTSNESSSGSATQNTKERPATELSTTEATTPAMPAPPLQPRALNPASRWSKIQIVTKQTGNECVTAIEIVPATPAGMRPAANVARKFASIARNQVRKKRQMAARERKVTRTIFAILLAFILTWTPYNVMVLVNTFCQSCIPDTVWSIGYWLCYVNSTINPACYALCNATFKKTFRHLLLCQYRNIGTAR
# TEST_DESCRIPTION: cell-based
METRIC_NAME: EC50 (nM)

                                   compound  metric_name  observed
0  Cc1nc2cc(C)c3c(N)c(C(=O)N[C@@H]4CCN(c5ccc(F)cn5)C4)sc3n2n1 [Compound 15]         EC50      1200
1  Cc1nc2cc(C)c3c(N)c(C(=O)NCc4ccc(N5CCN(C)CC5)cc4)sc3n2n1 [Compound 8]         EC50       217
2  Cc1nc2cc(C)c3c(N)c(C(=O)NC4CN(c5ncc(C6CC6)cc5C)C4)sc3n2n1 [Compound 9]         EC50       863
3  Cc1nc2cc(C)c3c(N)c(C(=O)N[C@H]4CCN(c5ccc(F)cn5)C4)sc3n2n1 [Compound 12]         EC50       596
